Numbers sourced from the Human Domainome abundance scans (Beltran et al. 2025).

B1: Homeobox protein cut-like 2, residues 895 to 963; numbered along this chain, O14529 (parent)
chain: EVDTLELTRQVKEKLAKNGICQRIFGEKVLGLSQGSVSDMLSRPKPWSKLTQKGREPFIRMQLWLSDQL

- Variants of: B1
- protocol-summary: abundance fitness (aPCA) (normalised: wild type 0, dead -1); higher = more abundant; growth selection in yeast, the domain comes from the species named
- protocol-conditions: Homo sapiens
# abundance fitness >= -0.2 gives class 1, anything below gives class 0

// inclusive: abundance fitness at least -0.2? input: EVDTLELTRQVKEKLAKNGICQRIFGEKVLGLSQGSVSDMLSRPKPWSKLTQKGRKPFIRMQLWLSDQL [E56K] class 1

EVDTLELTRQVKEKLAKNGICQRIFGEKVLGLSQGSVSDMLSRPHPWSKLTQKGREPFIRMQLWLSDQL [K45H] ? class 0

EVDTLELTRQVKEKLAKTGICQRIFGEKVLGLSQGSVSDMLSRPKPWSKLTQKGREPFIRMQLWLSDQL [N18T] ? class 1

EVDTLELTRQVKEKLAKNGIEQRIFGEKVLGLSQGSVSDMLSRPKPWSKLTQKGREPFIRMQLWLSDQL [C21E] ? class 1

EVDTLELTRQVKEKLAKNGICQRIFGEKVLGLSQGSVSDMLSRPKPWSKLTQKGREPFIRMQLWESDQL [L65E] ? class 0

EVDTLELTRQVKEKLAKNGICQRIFGEKVLGLSQGSVSDMYSRPKPWSKLTQKGREPFIRMQLWLSDQL [L41Y] ? class 0

EVDTLELTRQVKEKLAKNGICQRIFGEKVDGLSQGSVSDMLSRPKPWSKLTQKGREPFIRMQLWLSDQL [L30D] ? class 0

EVDTLELTRQVKEKLAKNGICQRIFGEKVLGLSQGSVSDMLSRPKPWQKLTQKGREPFIRMQLWLSDQL [S48Q] ? class 1

EVDTLELTRQVKEKLAKNGICQRIFGEKVLGLSQGSVSDMLSRPKPWSKLTQKGREPFIRMQLWRSDQL [L65R] ? class 0

EVDTLELTRQVKEKLAKNGICQRIFGEKVLGLSQGSVSDFLSRPKPWSKLTQKGREPFIRMQLWLSDQL [M40F] ? class 1

EVDTLELTRQVKEKLAKNGICQRIFGEKVLGLSQGSVSDMLSRPKPWSKLTQKGRECFIRMQLWLSDQL [P57C] ? class 1

EVDTLELTRQVKEKLAKNGICQRIFGEKVLGLSQGSVSDMLSRPKPWSKLTQKGREPFIRMQLWLSVQL [D67V] ? class 0

EVDTLELTRQVKEKLAKNGICQRIFGEKVLGLSQGSVSDMLSRPKPWSKLTQKGREPFIRMQLWLSDQI [L69I] ? class 0

EVDTLELTRQVKEKLAKNGICQRIFGEKVLGQSQGSVSDMLSRPKPWSKLTQKGREPFIRMQLWLSDQL [L32Q] ? class 0
